Measured MIC MRSA ATCC BAA-1556 (MRSA)
Residues, ends and D or L forms follow the SMILES beside them.
Answer with the figure and its unit, nothing else.

Sample answers from the record:
N=C(N)NCCC[C@@H]1NC(=O)[C@H](CCCNC(=N)N)NC(=O)[C@H](CCCNC(=N)N)NC(=O)[C@H](Cc2c[nH]c3ccccc23)NC(=O)[C@H](Cc2c[nH]c3ccccc23)NC(=O)[C@H](Cc2c[nH]c3ccccc23)NC(=O)[C@H](Cc2c[nH]c3ccccc23)NC(=O)[C@H](Cc2c[nH]c3ccccc23)NC(=O)[C@H](CCCNC(=N)N)NC(=O)[C@H](CCCNC(=N)N)NC1=O [[R5W5] (IFX-314)] (cyclo(RRRRRWWWWW)) : 4 µg/mL
N=C(N)NCCC[C@@H]1NC(=O)[C@H](CCCNC(=N)N)NC(=O)[C@H](CCCNC(=N)N)NC(=O)[C@H](Cc2c[nH]c3ccccc23)NC(=O)[C@H](Cc2c[nH]c3ccccc23)NC(=O)[C@H](Cc2c[nH]c3ccccc23)NC(=O)[C@H](Cc2c[nH]c3ccccc23)NC(=O)[C@H](CCCNC(=N)N)NC1=O [[R4W4] (IFX-326)] (cyclo(RRRRWWWW)) : 4 µg/mL
N=C(N)NCCC[C@@H]1NC(=O)[C@H](CCCNC(=N)N)NC(=O)[C@H](Cc2c[nH]c3ccccc23)NC(=O)[C@H](Cc2c[nH]c3ccccc23)NC(=O)[C@H](Cc2c[nH]c3ccccc23)NC(=O)[C@H](CCCNC(=N)N)NC1=O [[R3W3] (IFX-302)] (cyclo(WWWRRR)) : 16 µg/mL
N=C(N)NCCC[C@@H]1NC(=O)[C@H](CCCNC(=N)N)NC(=O)[C@H](CCCNC(=N)N)NC(=O)[C@H](CCCNC(=N)N)NC(=O)[C@H](Cc2c[nH]c3ccccc23)NC(=O)[C@H](Cc2c[nH]c3ccccc23)NC(=O)[C@H](Cc2c[nH]c3ccccc23)NC(=O)[C@H](Cc2c[nH]c3ccccc23)NC(=O)[C@H](CCCNC(=N)N)NC(=O)[C@H](CCCNC(=N)N)NC1=O [[R6W4] (IFX-318)] (cyclo(RRRRRRWWWW)) : 4 µg/mL
N=C(N)NCCC[C@@H]1NC(=O)[C@H](CCCNC(=N)N)NC(=O)[C@H](CCCNC(=N)N)NC(=O)[C@H](Cc2c[nH]c3ccccc23)NC(=O)[C@H](Cc2c[nH]c3ccccc23)NC(=O)[C@H](Cc2c[nH]c3ccccc23)NC(=O)[C@H](Cc2c[nH]c3ccccc23)NC(=O)[C@H](CCCNC(=N)N)NC(=O)[C@H](CCCNC(=N)N)NC1=O [[R5W4] (IFX-301)] : 4 µg/mL

Kindly review the next compound as well.
Entry under review: N=C(N)NCCC[C@@H]1NC(=O)[C@H](CCCNC(=N)N)NC(=O)[C@H](CCCNC(=N)N)NC(=O)[C@H](CCCNC(=N)N)NC(=O)[C@H](Cc2c[nH]c3ccccc23)NC(=O)[C@H](Cc2c[nH]c3ccccc23)NC(=O)[C@H](Cc2c[nH]c3ccccc23)NC(=O)[C@H](Cc2c[nH]c3ccccc23)NC(=O)[C@H](CCCNC(=N)N)NC(=O)[C@H](CCCNC(=N)N)NC(=O)[C@H](CCCNC(=N)N)NC1=O [[R7W4] (IFX-322)] (cyclo(RRRRRRRWWWW)) . Reported MIC MRSA ATCC BAA-1556?
16 µg/mL
